target: Cathepsin D (Oryctolagus cuniculus); assay: Inhibition of rabbit liver cathepsin D at pH 4.0
Reported Metric: pKi
Remember the convention: pKi equals -log10 of concentration in molar.

(Q) Report pKi for COC(=O)[C@H](Cc1ccccc1)NC(=O)[C@H](CC(C)C)NC(=O)CC(O)[C@H](CC(C)C)NC(=O)[C@H](Cc1c[nH]cn1)NC(=O)COC(=O)C(C)(C)C (stereo partly drawn) [POA-His-Sta-Leu-PheOMe]
(A) 5.46
